Readings of DC50 for the listed compounds
Target: Cbl-B (Homo sapiens, UniProt Q13191)
Construct: MSD-Based Assay for Degradation of Cbl-B in THP-1 Cells; endogenous in cells; host or cells: THP-1 (title) / Jurkat (protocol text)
Sequence (Q13191 whole entry): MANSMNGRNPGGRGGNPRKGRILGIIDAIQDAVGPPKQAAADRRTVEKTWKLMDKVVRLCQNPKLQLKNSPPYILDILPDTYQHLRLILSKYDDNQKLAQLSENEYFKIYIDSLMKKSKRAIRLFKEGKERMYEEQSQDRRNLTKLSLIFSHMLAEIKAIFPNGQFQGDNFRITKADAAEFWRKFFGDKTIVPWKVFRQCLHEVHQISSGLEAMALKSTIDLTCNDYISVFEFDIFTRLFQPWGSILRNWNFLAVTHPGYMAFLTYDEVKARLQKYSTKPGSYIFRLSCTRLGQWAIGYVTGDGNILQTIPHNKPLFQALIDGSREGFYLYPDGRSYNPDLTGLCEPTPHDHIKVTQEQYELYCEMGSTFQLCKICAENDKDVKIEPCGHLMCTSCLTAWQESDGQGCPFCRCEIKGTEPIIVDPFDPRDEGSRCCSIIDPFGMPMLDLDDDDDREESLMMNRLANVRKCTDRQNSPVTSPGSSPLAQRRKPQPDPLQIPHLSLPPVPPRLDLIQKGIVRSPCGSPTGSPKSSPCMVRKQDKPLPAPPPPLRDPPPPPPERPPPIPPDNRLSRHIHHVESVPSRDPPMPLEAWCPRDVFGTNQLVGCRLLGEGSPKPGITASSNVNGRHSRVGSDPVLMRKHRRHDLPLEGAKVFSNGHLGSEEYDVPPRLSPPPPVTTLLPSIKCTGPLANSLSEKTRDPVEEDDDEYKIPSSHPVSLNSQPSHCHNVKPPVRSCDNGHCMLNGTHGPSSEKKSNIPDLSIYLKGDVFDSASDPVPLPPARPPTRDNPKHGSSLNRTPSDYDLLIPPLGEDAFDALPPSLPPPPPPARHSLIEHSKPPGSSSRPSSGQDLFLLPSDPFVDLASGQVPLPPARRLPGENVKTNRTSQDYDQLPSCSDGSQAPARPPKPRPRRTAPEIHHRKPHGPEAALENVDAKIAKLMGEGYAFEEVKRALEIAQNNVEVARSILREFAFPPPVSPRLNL
Experiment: MSD-based assay for degradation of Cbl-B in THP-1 cells
Format: cell-based
Conditions: Cbl-B degradation, Jurkat cells seeded (heading: THP-1 cells), 24 hours incubation, MSD readout

Reference set, count: 10
compound: Cn1cnnc1[C@@H](c1cccc(-n2cc3c(C(F)(F)F)cc(CN4CCN(CCN5CCC(CN6CCN(c7ccc8c(c7)CN([C@@H]7CCC(=O)NC7=O)C8=O)CC6)CC5)CC4)cn3c2=O)c1)C1CCC1
DC50: 300 to 1000 nM
--
compound: Cn1cnnc1[C@@H](c1cccc(-n2cc3c(C(F)(F)F)cc(CN4CCC[C@@H](OC5CCN(C(=O)c6ccc(N7CCN(c8ccc9c(c8)CN([C@H]8CCC(=O)NC8=O)C9=O)CC7)cc6)CC5)C4)cn3c2=O)c1)C1CCC1 (single isomer, unassigned)
DC50: < 30 nM
--
compound: CO[C@H]1C[C@](c2cccc(-n3cc4c(C(F)(F)F)cc(CN5CCC(OCCN6CCC(CN7CCN(c8ccc9c(c8)CN([C@H]8CCC(=O)NC8=O)C9=O)CC7)CC6)CC5)cn4c3=O)c2)(c2nncn2C)C1
DC50: 30 to 300 nM
--
compound: Cn1cnnc1CC1(c2cccc(-n3cc4c(C(F)(F)F)cc(CN5CCC(OCCOCc6ccc(CN7CCN(c8cc9c(cc8F)C(=O)N(C8CCC(=O)NC8=O)C9=O)CC7)cc6)CC5)cn4c3=O)c2)COC1 (centres unmarked)
DC50: > 10000 nM
--
compound: Cn1cnnc1CC1(c2cccc(-n3cc4c(C(F)(F)F)cc(CN5CCC[C@@H](OCCN6CCC(CN7CCN(c8ccc9c(c8)CN([C@H]8CCC(=O)NC8=O)C9=O)CC7)CC6)C5)cn4c3=O)c2)COC1 (single isomer, unassigned)
DC50: 30 to 300 nM
--
compound: Cn1cnnc1[C@@H](c1cccc(-n2cc3c(C(F)(F)F)cc(CN4CCC[C@H](OCCN5CCC(CN6CCN(c7ccc8c(c7)CN([C@@H]7CCC(=O)NC7=O)C8=O)CC6)CC5)C4)cn3c2=O)c1)C1CCC1
DC50: 1000 to 10000 nM
--
compound: CN(CC1CCN(Cc2cc(C(F)(F)F)c3cn(-c4cccc([C@H](c5nncn5C)C5CCC5)c4)c(=O)n3c2)CC1)C(=O)c1ccc(N2CCN(c3ccc4c(c3)CN([C@H]3CCC(=O)NC3=O)C4=O)CC2)cc1 (single isomer, unassigned)
DC50: < 30 nM
--
compound: Cn1cnnc1[C@@H](c1cccc(-n2cc3c(C(F)(F)F)cc(CN4CCC(C(=O)N5CCC(CN6CCN(c7cc8c(cc7F)C(=O)N(C7CCC(=O)NC7=O)C8=O)CC6)CC5)CC4)cn3c2=O)c1)C1CCC1 (some centres unmarked)
DC50: > 10000 nM
--
compound: Cn1cnnc1CC1(c2cccc(-n3cc4c(C(F)(F)F)cc(CN5CCC(OCCN6CCC(CN7CCN(c8ccc9c(c8)CN([C@@H]8CCC(=O)NC8=O)C9=O)CC7)CC6)CC5)cn4c3=O)c2)COC1 (single isomer, unassigned)
DC50: 300 to 1000 nM
--
compound: Cn1cnnc1[C@@H](c1cccc(-n2cc3c(C(F)(F)F)cc(CN4CC[C@H](OCCOCc5ccc(COCCNc6cccc7c6C(=O)N(C6CCC(=O)NC6=O)C7=O)cc5)C4)cn3c2=O)c1)C1CCC1 (some centres unmarked)
DC50: 300 to 1000 nM

Using the record for Cn1cnnc1CC1(c2cccc(-n3cc4c(C(F)(F)F)cc(CN5CCC(OCCOCc6ccc(CN7CCN(c8ccc9c(c8)CN([C@H]8CCC(=O)NC8=O)C9=O)CC7)cc6)CC5)cn4c3=O)c2)COC1 (single isomer, unassigned) , report its DC50. < 30 nM

I would be grateful if you could share the reported DC50 for Cn1cnnc1[C@@H](c1cccc(-n2cc3c(C(F)(F)F)cc(CN4CCC(OCCOCc5ccc(CC6CCN(c7ccc8c(c7)CN([C@@H]7CCC(=O)NC7=O)C8=O)CC6)cc5)CC4)cn3c2=O)c1)C1CCC1 (single isomer, unassigned) . 1000 to 10000 nM

Please look up its DC50: Cn1cnnc1[C@@H](c1cccc(-n2cc3c(C(F)(F)F)cc(CN4CCC(CN5CCC(CN6CCN(c7cc8c(cc7F)C(=O)N(C7CCC(=O)NC7=O)C8=O)CC6)CC5)CC4)cn3c2=O)c1)C1CCC1 (some centres unmarked) > 10000 nM

Please report the recorded DC50 for `Cn1cnnc1[C@@H](c1cccc(-n2cc3c(C(F)(F)F)cc(CN4CCC(OCCN5CCC(CN6CCN(c7ccc8c(c7)CN([C@@H]7CCC(=O)NC7=O)C8=O)CC6)CC5)CC4)cn3c2=O)c1)C1COC1` . 1000 to 10000 nM

Value lookup for DC50; key = `CN(CCO[C@H]1CCCN(Cc2cc(C(F)(F)F)c3cn(-c4cccc([C@H](c5nncn5C)C5CCC5)c4)c(=O)n3c2)C1)C(=O)c1ccc(N2CCN(c3ccc4c(c3)CN([C@H]3CCC(=O)NC3=O)C4=O)CC2)cc1` 300 to 1000 nM

// returns reported DC50 for input `Cn1cnnc1[C@@H](c1cccc(N2Cc3c(cc(CN4CCC(OCCN5CCC(CN6CCN(c7ccc8c(c7)CN([C@H]7CCC(=O)NC7=O)C8=O)CC6)CC5)CC4)cc3C(F)(F)F)C2=O)c1)C1CCC1` 30 to 300 nM

Tell me the measured DC50 of `CN(CCO[C@@H]1CCCN(Cc2cc(C(F)(F)F)c3cn(-c4cccc([C@H](c5nncn5C)C5CCC5)c4)c(=O)n3c2)C1)C(=O)c1ccc(N2CCN(c3ccc4c(c3)CN([C@H]3CCC(=O)NC3=O)C4=O)CC2)cc1` , please. 30 to 300 nM
